Taken from paper doi:10.1101/2022.02.11.480038.

Target System: GABARAP Y5F H9A mutant (human, UniProt O95166 1-116, Y5F | H9A)
Sequence (O95166 1-116 Y5F/H9A): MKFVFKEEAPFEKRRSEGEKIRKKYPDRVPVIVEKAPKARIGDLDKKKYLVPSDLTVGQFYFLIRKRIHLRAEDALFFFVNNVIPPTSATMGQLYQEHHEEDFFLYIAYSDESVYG
Experiment Notes: ITC
Where no end group is shown, it is not given here. [ ]: non-standard residue; d: D form. pS = N[C@@H](COP(=O)(O)O)C(=O)O
Value Type: Kd (nM)
// units = nM; emit number, no label

Input: Bench note: what Kd did SG[pS][pS]FEELDL [phosphorylated TEX264 LIR (residues 269-278 with p-S271,p-S272)] show?
Output: 2200
